details: in n-pentanol, 318.05 K
MEASURE: solubility (mole fraction)

Need solubility (mole fraction), item "C[C@H]1[C@H](OC(=O)CCC(=O)O)O[C@@H]2O[C@@]3(C)CC[C@H]4[C@H](C)CC[C@@H]1[C@@]24OO3"
0.0491

* * *

settings: in isopropyl acetate, 283.17 K
MEASURE: solubility (mole fraction)
The answer should be a number; do not append a unit.

Need solubility (mole fraction), item "C[C@H]1[C@H](OC(=O)CCC(=O)O)O[C@@H]2O[C@@]3(C)CC[C@H]4[C@H](C)CC[C@@H]1[C@@]24OO3"
0.0122

* * *

conditions: in n-propanol, 303.02 K
MEASURE: solubility (mole fraction)
The answer should be a number; do not append a unit.

Need solubility (mole fraction), item "C[C@H]1[C@H](OC(=O)CCC(=O)O)O[C@@H]2O[C@@]3(C)CC[C@H]4[C@H](C)CC[C@@H]1[C@@]24OO3"
0.0207
